The origin of these recorded values is paper PMC3538638.

Target: the molecule itself
Test: SEC; Superdex 200 10/300 GL, 20 mM PIPES/HCl pH 6.8, 150 mM NaCl, 1 mM EDTA, 5% glycerol, 1 mM NaN3, 0.3 ml/min; retention times of wild type and variants compared

{"Protein": "HsDH(W249G), patient variant of the 3R-hydroxyacyl-CoA dehydrogenase fragment of human MFE-2 (domain or fragment, Made by site-directed mutagenesis of pLWRP51::HsDH; for the limits see the note of m1; also called W249G variant; source: E. coli BL21(DE3)pLysS, pLWRP51 vector, purified (Ni-NTA, Superdex 200)) MGSPLRFDGRVVLVTGAGAGLGRAYALAFAERGALVVVNDLGGDFKGVGKGSLAADKVVEEIRRRGGKAVANYDSVEEGEKVVKTALDAFGRIDVVVNNAGILRDRSFARISDEDWDIIHRVHLRGSFQVTRAAWEHMKKQKYGRIIMTSSASGIYGNFGQANYSAAKLGLLGLANSLAIEGRKSNIHCNTIAPNAGSRMTQTVMPEDLVEALKPEYVAPLVLWLCHESCEENGGLFEVGAGWIGKLRGERTLGAIVRQKNHPMTPEAVKANWKKICDFENASKPQSIQESTGSIIEVLSKIDS", "binding result": "binds"}
